Reported pIC50 values follow for various compounds
- tested.on: human SPR (Homo sapiens (Human))
- measurement.protocol: Evaluation Example 2: Measurement of human SPR inhibitory activity (seven concentrations, sepiapterin absorbance at 420 nm)
- Type: biochemical
- measurement.setup: Evaluation Example 2, seven concentrations 0.14 nM to 100 nM, 240 minutes at room temperature, read-out: IC50
pIC50: −log10 of the molar value.

compound	pIC50
CC(C)Cn1c(=O)c(C(=O)NC2CC2)c(O)n2nc(NC(=O)OC(C)(C)C)c(/C=C/C(=O)N3CCC(F)(F)CC3)c12 [Synthesis Example 413]	8.88
CNc1ccncc1-c1cc2n(CC(C)(C)C)c(=O)c(C(=O)NC3CC3)c(O)n2n1 [Synthesis Example 308]	8.44
CC(C)(C)Cn1c(=O)c(C(=O)NC2CC2)c(O)n2nc(Nc3cnc(C(N)=O)cn3)cc12 [Synthesis Example 21]	9.02
Cc1nn2c(O)c(C(=O)NC3CC3)c(=O)n(CC(C)C)c2c1/C=C/C(=O)N1CCc2cc(Br)ccc21 [Synthesis Example 670]	7.94
Cn1ccnc1Nc1cc2n(CC(C)(C)C)c(=O)c(C(=O)NC3CC3)c(O)n2n1 [Synthesis Example 357]	8.82
Cc1nn2c(O)c(C(=O)NC3CC3)c(=O)n(CC(C)C)c2c1/C=C/C(=O)N1CCC[C@@H]1C(F)F [Synthesis Example 632]	8.82
CC(C)Cn1c(=O)c(C(=O)NC2CC2)c(O)n2ncc(/C=C/C(=O)N3CCN(C(C)C)CC3)c12	9.02
CN1Cc2c(nn3c(O)c(C(=O)NC4CC4)c(=O)n(CC(C)(C)C)c23)NC1=O [Synthesis Example 406]	9.03

---

- tested.on: human SPR (Homo sapiens (Human), UniProt P35270)
- Sequence (P35270 whole entry): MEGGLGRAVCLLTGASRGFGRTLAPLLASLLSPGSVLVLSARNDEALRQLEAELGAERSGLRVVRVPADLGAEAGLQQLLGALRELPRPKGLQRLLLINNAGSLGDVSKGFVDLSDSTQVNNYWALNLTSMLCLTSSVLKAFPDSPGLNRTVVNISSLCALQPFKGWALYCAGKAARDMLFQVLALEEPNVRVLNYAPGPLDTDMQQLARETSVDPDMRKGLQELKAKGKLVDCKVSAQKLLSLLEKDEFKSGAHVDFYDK
- measurement.protocol: Evaluation Example 2: Measurement of human SPR inhibitory activity (seven concentrations, sepiapterin absorbance at 420 nm)
- Format: biochemical
- measurement.setup: Evaluation Example 2, seven concentrations 0.14 nM to 100 nM, 240 minutes at room temperature, read-out: IC50
pIC50: −log10 of the molar value.
Reported pIC50 values follow for various molecules

molecule	tested.on	pIC50
Cc1cc2n(CC(C)C)c(=O)c(C(=O)NC3CC3)c(O)n2n1 [Synthesis Example 319]	human SPR (Homo sapiens (Human), UniProt P35270)	8.50
CCc1nn2c(O)c(C(=O)NC3CC3)c(=O)n(CC(C)C)c2c1/C=C/C(=O)N1CCC[C@@H]1C(C)(C)O [Synthesis Example 654]	human SPR (Homo sapiens (Human), UniProt P35270)	9.02
CC(C)(C)Cn1c(=O)c(C(=O)NCC(F)(F)F)c(O)n2nc(Br)cc12 [Synthesis Example 272]	human SPR (Homo sapiens (Human), UniProt P35270)	8.42
CC(C)Cn1c(=O)c(C(=O)NC2CC2)c(O)n2ncc(/C=C/C(=O)N3CCC[C@H]3C#N)c12	human SPR (Homo sapiens (Human), UniProt P35270)	9.04
CC(C)Cn1c(=O)c(C(=O)NC2CC2)c(O)n2ncc(/C=C/C(=O)N3C[C@H](C)O[C@@H](C)C3)c12	human SPR (Homo sapiens (Human), UniProt P35270)	9.06
Cc1nn2c(O)c(C(=O)NC3CC3)c(=O)n(CC(C)C)c2c1/C=C/C(=O)N(C)Cc1cnccn1 [Synthesis Example 636]	human SPR (Homo sapiens (Human), UniProt P35270)	8.83
CC(C)(C)Cn1c(=O)c(C(=O)NC2CC2)c(O)n2nc3[nH]ccc3c12 [Synthesis Example 395]	human SPR (Homo sapiens (Human), UniProt P35270)	9.05
CC(C)Cn1c(=O)c(C(=O)NC2CC2)c(O)n2ncc(/C=C/C(=O)N3CCC(C(C)(F)F)CC3)c12	human SPR (Homo sapiens (Human), UniProt P35270)	9.05
CC(C)Cn1c(=O)c(C(=O)NC2CC2)c(O)n2ncc(/C=C/C(=O)N3CCC(C)(C)C3)c12	human SPR (Homo sapiens (Human), UniProt P35270)	8.98
CC(C)Cn1c(=O)c(C(=O)NC2CC2)c(O)n2ncc(/C=C/C(=O)NCC(C)(C)O)c12	human SPR (Homo sapiens (Human), UniProt P35270)	8.95
CC(C)(C)Cn1c(=O)c(C(=O)NC2CC2)c(O)n2nc(NC3CCCCC3)cc12 [Synthesis Example 343]	human SPR (Homo sapiens (Human), UniProt P35270)	8.33
CC(C)Cn1c(=O)c(C(=O)NC2CC2)c(O)n2ncc(/C=C/C(=O)N3CCCCO3)c12	human SPR (Homo sapiens (Human), UniProt P35270)	9.04
CC(C)Cn1c(=O)c(C(=O)NCC(F)(F)F)c(O)n2nc(Nc3cnccn3)cc12 [Synthesis Example 348]	human SPR (Homo sapiens (Human), UniProt P35270)	8.55
CC(C)(C)Cn1c(=O)c(C(=O)NC2CC2)c(O)n2nc(C#N)cc12 [Synthesis Example 279]	human SPR (Homo sapiens (Human), UniProt P35270)	8.75
CC(C)Cn1c(=O)c(C(=O)NC2CC2)c(O)n2ncc(C(=O)NCc3cnccn3)c12 [Synthesis Example 220]	human SPR (Homo sapiens (Human), UniProt P35270)	9.10
Cc1nn2c(O)c(C(=O)NC3CC3)c(=O)n(CC(C)C)c2c1/C=C/C(=O)N1CCN(C2CC(F)(F)C2)CC1 [Synthesis Example 615]	human SPR (Homo sapiens (Human), UniProt P35270)	8.85
CO[C@@H]1CCN(C(=O)/C=C/c2c(C)nn3c(O)c(C(=O)NC4CC4)c(=O)n(CC(C)C)c23)C1	human SPR (Homo sapiens (Human), UniProt P35270)	9.05

---

- tested.on: UniProtKB P35270
- measurement.protocol: Evaluation Example 2: Measurement of human SPR inhibitory activity (seven concentrations, sepiapterin absorbance at 420 nm)
- Type: biochemical
- measurement.setup: sepiapterin absorbance, Table 41, read-out: concentration at 50% inhibition of human SPR (IC50)
pIC50: −log10 of the molar value.

molecule	pIC50
CC(C)Cn1c(=O)c(C(=O)NC2CC2)c(O)n2ncc(/C=C/C(=O)N3CCC[C@@H]3c3cccnc3)c12 [Synthesis Example 748]	9.00
CC(C)Cn1c(=O)c(C(=O)NC2CC2)c(O)n2ncc(/C=C/C(=O)N3CCc4ccccc43)c12 [Synthesis Example 725]	8.44
CC(C)Cn1c(=O)c(C(=O)NC2CC2)c(O)n2ncc(/C=C/C(=O)N3CCN(C4CC(F)(F)C4)C[C@H]3C)c12 [Synthesis Example 715]	8.89
CC(C)Cn1c(=O)c(C(=O)NC2CC2)c(O)n2ncc(/C=C/C(=O)N3CCC[C@H]3C(C)(C)O)c12 [Synthesis Example 730]	8.90
CC(C)Cn1c(=O)c(C(=O)NC2CC2)c(O)n2ncc(/C=C/C(=O)N3CCCC34CC4)c12 [Synthesis Example 721]	8.98
CC(C)Cn1c(=O)c(C(=O)NC2CC2)c(O)n2ncc(/C=C/C(=O)N3CCN(C4CC(F)(F)C4)C[C@@H]3C)c12 [Synthesis Example 726]	8.87
CC(C)Cn1c(=O)c(C(=O)NC2CC2)c(O)n2ncc(/C=C/C(=O)N3CCc4cc(C#N)ccc43)c12 [Synthesis Example 732]	8.77
CC(C)Cn1c(=O)c(C(=O)NC2CC2)c(O)n2ncc(/C=C/C(=O)N3C[C@@H](F)[C@H](F)C3)c12 (racemic) [Synthesis Example 723]	9.16
CC(C)Cn1c(=O)c(C(=O)NC2CC2)c(O)n2ncc(/C=C/C(=O)N3CCC[C@H]3c3ccccc3)c12 [Synthesis Example 727]	8.87
Cc1nn2c(O)c(C(=O)NC3CC3)c(=O)n(CC(C)C)c2c1/C=C/C(=O)N1C[C@@H](F)[C@H](F)C1 (single isomer, unassigned; isomer a) [Synthesis Example 755]	9.21
CC(C)Cn1c(=O)c(C(=O)NC2CC2)c(O)n2ncc(/C=C/C(=O)N3C[C@@H](C)OC[C@H]3C)c12 [Synthesis Example 716]	9.06
CCN1CCN(C(=O)/C=C/c2c(C)nn3c(O)c(C(=O)NC4CC4)c(=O)n(CC(C)C)c23)[C@@H](C)C1 [Synthesis Example 707]	9.08
Cc1nn2c(O)c(C(=O)NC3CC3)c(=O)n(CC(C)C)c2c1/C=C/C(=O)N1C[C@@H](F)[C@H](F)C1 (single isomer, unassigned; isomer b) [Synthesis Example 756]	9.15
CC(C)Cn1c(=O)c(C(=O)NC2CC2)c(O)n2ncc(/C=C/C(=O)N3C[C@@H](F)[C@@H](F)C3)c12 [Synthesis Example 722]	9.09
Cc1nn2c(O)c(C(=O)NC3CC3)c(=O)n(CC(C)C)c2c1/C=C/C(=O)N1CCN(CC2CC(F)(F)C2)CC1 [Synthesis Example 698]	8.82
CC(C)Cn1c(=O)c(C(=O)NC2CC2)c(O)n2ncc(/C=C/C(=O)N3C[C@H](C)OC[C@H]3C)c12 [Synthesis Example 718]	9.13
